Test system: UACC-257
Assay: NCI tumour cell line growth inhibition, 48 h
Calls of active or inactive are those of the source. Rule as the data show it: active = GI50 up to about 1.1 µM and inactive = higher.
Reported GI50 values follow for various molecules

{"columns": ["Molecule", "GI50"],
 "data": [
  ["Cc1ncc([N+](=O)[O-])n1CCNC(=O)Cn1c([N+](=O)[O-])cnc1C", "> 100 µM (inactive)"],
  ["COC1=CC(C2c3cc4c(cc3[C@@H](Nc3ccc(F)cc3)C3COC(=O)[C@H]23)OCO4)=CC(=O)C1=O (stereo not given in full)", "37.6 µM (inactive)"],
  ["CCCCCCCCCCCCNC(=O)NCC(OCC)OCC", "> 10 µM (inactive)"]
]}

Query :: Give its GI50 value. Item: O=c1c2cc(Br)ccc2nc(-c2ccccc2Cl)n1NCC1(O)OCC(O)C(O)C1O (stereo not given)
Result :: > 100 µM (inactive)

Query :: What about O=C1c2cccnc2S(=O)(=O)N1c1ccc(Br)cc1 ?
Result :: > 100 µM (inactive)
